Target: Retinoic acid receptor beta (Mus musculus)
Sequence (P22605 whole entry): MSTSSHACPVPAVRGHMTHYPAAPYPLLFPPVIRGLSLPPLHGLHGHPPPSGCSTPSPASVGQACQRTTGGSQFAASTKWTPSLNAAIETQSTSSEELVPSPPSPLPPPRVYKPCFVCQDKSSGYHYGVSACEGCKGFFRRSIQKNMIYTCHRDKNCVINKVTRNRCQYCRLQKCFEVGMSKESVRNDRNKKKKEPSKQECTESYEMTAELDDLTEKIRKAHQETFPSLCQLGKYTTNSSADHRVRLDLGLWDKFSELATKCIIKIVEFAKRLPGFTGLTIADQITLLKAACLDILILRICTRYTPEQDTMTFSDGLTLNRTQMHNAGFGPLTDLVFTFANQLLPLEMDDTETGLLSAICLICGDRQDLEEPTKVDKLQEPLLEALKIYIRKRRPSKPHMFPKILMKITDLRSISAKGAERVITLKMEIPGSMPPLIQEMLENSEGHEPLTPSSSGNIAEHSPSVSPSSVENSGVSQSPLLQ
Assay: Dissociation constant for binding to Retinoic acid receptor beta
Reported metric: pKd
One number for each entry, as −log10 of the molar value.

Line notation | Study target | pKd
Cc1cc2c(cc1Sc1ncc(C(=O)O)s1)C(C)(C)CCC2(C)C | Retinoic acid receptor beta (Mus musculus) | 6.00

We next turn to a different compound, shown below.
Input: Given CC1(C)CCC(C)(C)c2cc(Sc3ccc(C(=O)O)cc3)ccc21 , state its recorded pKd.
Output: 5.37

----------
Molecular target: UniProtKB P18911
Sequence (P18911 whole entry): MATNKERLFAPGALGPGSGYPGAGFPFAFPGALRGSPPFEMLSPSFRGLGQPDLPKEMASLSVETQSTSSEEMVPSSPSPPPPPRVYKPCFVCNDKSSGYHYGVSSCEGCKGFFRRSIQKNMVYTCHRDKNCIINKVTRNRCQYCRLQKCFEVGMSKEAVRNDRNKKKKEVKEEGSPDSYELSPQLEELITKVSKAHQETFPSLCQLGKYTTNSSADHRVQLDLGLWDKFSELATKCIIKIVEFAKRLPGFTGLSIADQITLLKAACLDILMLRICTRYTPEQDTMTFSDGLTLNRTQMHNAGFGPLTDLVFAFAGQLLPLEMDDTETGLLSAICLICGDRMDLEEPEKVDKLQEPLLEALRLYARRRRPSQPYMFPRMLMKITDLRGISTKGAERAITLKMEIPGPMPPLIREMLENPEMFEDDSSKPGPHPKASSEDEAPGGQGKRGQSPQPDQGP
Test: Dissociation constant for binding to Retinoic acid receptor gamma
What pKd was measured for each of the following?
Numbers only, as −log10 of the molar value.

Molecule | pKd
Cc1cc2c(cc1S(=O)(=O)c1ccc(C(=O)O)cc1)C(C)(C)CCC2(C)C | 5.00
Cc1cc2c(cc1Sc1ncc(C(=O)O)s1)C(C)(C)CCC2(C)C | 6.00

Could you report pKd for every entry in the following list?
1. Cc1cc2c(cc1[S+]([O-])c1ccc(C(=O)O)cc1)C(C)(C)CCC2(C)C (stereo not given)
2. Cc1cc2c(cc1Sc1ccc(C(=O)O)cc1)C(C)(C)CCC2(C)C

Output:
1. 5.00
2. 5.00
